Cited source for all entries: ChEMBL document CHEMBL1201862

tested on: SF-295; experiment: NCI tumour cell line growth inhibition, 48 h
Activity calls are given as the source filed them. No stated cut-off is given here; in the data, active = GI50 up to about 1.1 µM and inactive = higher. Bridge positions count the residues as written; N and C are the ends. Where a SMILES comes first, the peptide text is derived from it. Peptide text beside a SMILES is read from it. [ ]: non-standard residue; d: D form. * marks the point of attachment. Aoe = N[C@@H](CCCCCC(=O)[C@@H]1CO1)C(=O)O; Cbz = O=C(OCc1ccccc1)*
Outcome codes: YES = active, NO = inactive

molecule	category
COc1ccc2c(c1)CCc1c(-c3noc4c3CCc3cc(OC)ccc3-4)noc1-2	NO
COc1ccc(/C(=N\NC(=O)NN)C(c2ccc(OC)cc2)C2(O)C(=O)Nc3c(Cl)cc(Cl)cc32)cc1 (stereo not given)	NO
Cc1cc(CS(=O)(=O)/C=C/c2ccccc2[N+](=O)[O-])c(CS(=O)(=O)/C=C/c2ccccc2[N+](=O)[O-])cc1C	NO
CC(C)OP(=O)(OC(C)C)C(Nc1cccc(C(F)(F)F)c1)c1ccccc1 (stereo not given)	NO
N=C(c1ccc(-c2cn3cc(C(=N)N4CCCC4)ccc3n2)cc1)N1CCCC1	NO
O=c1[nH]/c(=C/c2ccc3c(c2)OCO3)c(=O)[nH]/c1=C/c1ccc2c(c1)OCO2	NO
O=C1CCCn2c3ccccc3c3ccnc1c32	NO
CNCCCn1c2ccccc2c2c3c(c(-c4ccsc4)cc21)C(=O)NC3=O	YES
CN(C)c1ccc(/C=N/n2c(-c3ccccc3)nc3ccccc3c2=O)cc1	NO
COc1cc2c(c(OC)c1OC)-c1ccc(SC)c(=O)cc1C(CC(=O)Oc1ccc(F)cc1)C2 (stereo not given)	YES
CN(C)CC(CN(C)C)c1ccccn1	NO
C/C=C/CP(=O)(c1ccccc1)c1ccccc1	NO
COc1ccc(C2=CC(c3ccccc3)n3nnnc3N2)cc1 (stereo not given)	NO
O=[N+]([O-])C(Cl)=C/C(=C(\Cl)SCc1ccccc1)[N+](=O)[O-]	NO
Cc1ccc(-n2cc([Si](C)(C)C)nn2)s1	NO
c1cc(C[S+]2CCCC2)ccc1C[S+]1CCCC1	NO
CCCCC(=C=C(C)CO)C1CCCN1C(=O)OC(C)(C)C (stereo not given)	NO
CCN(CCCl)c1cccc(NC(=O)c2ccc(C(=O)Nc3cccc(CN(C)C)c3)cc2)c1	YES
CC1=C(O)C(=O)C2C(=O)C1C1Cc3ccccc3C21 (stereo not given)	NO
CC1(C)CCC(C)(C)c2cc(NC(=O)c3ccc(C(=O)O)cc3)ccc21	NO
COC(=O)C1Cc2c([nH]c3ccccc23)-c2[nH]c3ccccc3c2CC(NC(C)=O)C(=O)NCC(=O)NCC(=O)N1 (stereo not given)	NO
COC(=O)C1=C(O)C(C(=O)OC)[C@]2(O)[C@H](C(=O)OC)[C@H]1C[C@@H](c1ccc(Cl)cc1Cl)[C@H]2C(=O)OC (stereo not given in full)	NO
O=Cc1ccc(-c2ccc(S(=O)(=O)O)cc2)o1	NO
CN1c2ccccc2C2c3c(O)ccc(O)c3C=C([N+](=O)[O-])C21 (stereo not given)	NO
Cc1cc(NC(=O)C(=O)Cc2nc3ccccc3s2)ccc1Cl	NO
CNC(=O)C1CCCCNC(=O)CCC(NC(=O)OCc2ccccc2)C(=O)N1 (stereo not drawn) (Cbz-Glu-Lys-NHMe; lactam 1-2; configuration not given here)	NO
N=C(N)N/N=C(\c1ccc(Cl)cc1)C1CC1	NO
Cc1[nH]n(-c2ncc(C(=O)O)c(=O)[nH]2)c(=O)c1CCO	NO
C/C(=N\Nc1ncnc2ccccc12)c1ccccn1	YES
CCOC(=O)CCC(C(=O)OCC)n1nnc2ccc(Nc3c(C)[n+]([O-])c4cc(F)c(OCC)cc4[n+]3[O-])cc21 (stereo not given)	NO
O=C(CO)C1CC2C=CC1C2 (stereo not given)	NO
O=C1N[C@@H](Cc2ccccc2)C(=O)N2CCC[C@@H]2C(=O)N[C@@H](CCCCCC(=O)[C@@H]2CO2)C(=O)N[C@H]1Cc1ccccc1 [TRAPOXIN B] (cyclo(FF[dP][Aoe]))	YES
CCOc1ccc(OCC(=O)O)c2c1CCCC2=O	NO
ClCCCCCc1c2nc(c(CCCCCCl)c3ccc([nH]3)c(CCCCCCl)c3nc(c(CCCCCCl)c4ccc1[nH]4)C=C3)C=C2	NO
CC1(C)N=C(/C(Cl)=[N+](/[O-])C(=O)c2ccc(F)cc2)C(C)(C)N1O	NO
O=C1Nc2ccc(S(=O)(=O)NCCO)cc2/C1=C1/Nc2ccccc2C1=O	NO
CCN(CC)C(=O)C/C(C)=N/NC(=O)c1ccncc1	NO
O=C1OC(CC(=O)c2ccc(Cl)c(Cl)c2)C(Cl)=C1Cl (stereo not given)	NO
O=C1OC(c2ccccc2)=NC1c1ccccc1 (stereo not given)	NO
c1ccc2c(c1)SCCC2NC1=NCCO1 (stereo not given)	NO

====

tested on: SNB-75; assay: NCI tumour cell line growth inhibition, 48 h
The source made the active and inactive calls. Rule as the data show it: active = GI50 up to about 1.1 µM and inactive = higher.
Outcome codes: active, inactive

molecule	target-or-test-system	category
CCCCCCCCCc1cccc(N2C(N)=NC(N)=NC2(C)C)c1	SNB-75	active
CC(=O)OCC1OC(Nc2nc(O)n(C)c(=O)c2-c2csc(N)n2)C(OC(C)=O)C(OC(C)=O)C1OC(C)=O (stereo not given)	SNB-75	inactive
O=C(O)c1ccccc1C(=O)Nn1cnnc1	SNB-75	inactive
CC(NC(=O)NC(C)(C)C)NC(=O)C(N)CC(=O)O (stereo not given)	SNB-75	inactive
Cc1ccc([N+](=O)[O-])cc1S(=O)(=O)Nc1ccc(C2=NOC(c3ccco3)C2)cc1 (stereo not given)	SNB-75	inactive
CC1=NC(=Cc2ccccc2O)C(=O)N1n1c(-c2ccccc2)nc2ccccc2c1=O	SNB-75	inactive
NC1OC(COC(=O)c2ccccc2)C(O)C(OC(=O)c2ccccc2)C1OC(=O)c1ccccc1 (stereo not given)	SNB-75	inactive
CC(=O)Nc1c2sscc-2n(C)c1=O	SNB-75	inactive
O=P1(Oc2ccc(Cl)cc2Cl)Oc2ccc3ccccc3c2-c2c(ccc3ccccc23)O1	SNB-75	inactive
CC(=O)OC(CCC1(C)OC1COc1ccc(CCNC(=O)C=C(C)C)cc1)C(C)(C)OC(C)=O (stereo not given)	SNB-75	inactive

====

GI50 reference
system: 786-0; assay: NCI tumour cell line growth inhibition, 48 h
Activity calls are given as the source filed them. Cut-off read from the data, not from the text of the source: active = GI50 up to about 1.1 µM and inactive = higher.
property-label: GI50

compound	property-label	recorded-value
C/C=C\C(CC(=O)NCCC1CN(S(=O)(=O)C(F)(F)F)c2ccccc21)CC(=O)OC (centres undefined)	GI50	34.2 µM (inactive)
[O-][S+](Cc1cc2c(cc1Br)OCO2)c1ccccc1 (centres undefined)	GI50	39.1 µM (inactive)
CCN(CCO)CCNc1ccc(C)c2sc3ccccc3c(=O)c12	GI50	2.96 µM (inactive)
O=NN(CCCl)C(=O)NC1CCC(CC2CCC(NC(=O)N(CCCl)N=O)CC2)CC1 (centres undefined)	GI50	13.2 µM (inactive)
CN(C)CCC(C(=O)C(C)(C)C)c1ccccn1 (centres undefined)	GI50	> 100 µM (inactive)
CCOC1=C2C(=O)OC(=O)C2C2CCCCC2=C1 (centres undefined)	GI50	> 100 µM (inactive)
O=C1OCC/C1=C/c1ccc(/N=N/c2c(O)ccc3ccccc23)cc1	GI50	19.1 µM (inactive)
Cc1cccc(C)c1NC(=O)CCCC(=O)C(C#N)c1ccccc1 (centres undefined)	GI50	> 10 µM (inactive)
CC1=C(c2cc(C(=O)Nc3ccc(Cl)c(Cl)c3)nc(N)n2)Sc2ccccc2N1	GI50	> 100 µM (inactive)

====

tested on: DU-145; test: NCI tumour cell line growth inhibition, 48 h
Calls of active or inactive are those of the source. Cut-off read from the data, not from the text of the source: active = GI50 up to about 1.1 µM and inactive = higher.
GI50 reference

compound	GI50
NC1OC(COC(=O)c2ccccc2)C(O)C(OC(=O)c2ccccc2)C1OC(=O)c1ccccc1 (stereo unspecified)	40.1 µM (inactive)
COc1ccccc1NC1Oc2cc3c(cc2C(c2cc(OC)c(OC)c(OC)c2)C1C)OCO3 (stereo unspecified)	4.75 µM (inactive)
Cc1ccc(C(=O)CC(Cl)=C(Cl)Cl)cc1	> 100 µM (inactive)
CCOC(=O)C1CC(O)C(=O)N1C (stereo unspecified)	> 100 µM (inactive)
Cc1cc(NC(=O)C(=O)Cc2nc3ccccc3s2)ccc1Cl	> 100 µM (inactive)
COc1ccc2c(c1)[nH]c1c(/C=C/c3ccccc3)nccc12	20.5 µM (inactive)

====

test system: SN12C; assay: NCI tumour cell line growth inhibition, 48 h
Activity calls are given as the source filed them. Cut-off read from the data, not from the text of the source: active = GI50 up to about 1.1 µM and inactive = higher.
Outcome codes: active, inactive

molecule	target-or-test-system	category
c1ccc2c3ccn4ccc5c6ccccc6[nH]c5c4c-3nc2c1	SN12C	active
Cc1ccc(N2C(=O)C(=O)N(/N=C3\C(=O)Nc4ccccc43)C2=S)cc1	SN12C	inactive
Cc1cc(CS(=O)(=O)/C=C/c2ccccc2[N+](=O)[O-])c(CS(=O)(=O)/C=C/c2ccccc2[N+](=O)[O-])cc1C	SN12C	inactive
C=CCc1cccc2cc(C(=O)Nc3ccccn3)c(=N)oc12	SN12C	inactive
OC1CCCC1C(O)(C(F)(F)F)C(F)(F)F (stereo unspecified)	SN12C	inactive
CCc1nc(N)nc(N)c1-c1ccc([N+](C)(C)C)cc1	SN12C	inactive
O=C1Cc2cc3ccccc3nc2-c2ccccc2N1	SN12C	inactive
CCOC1=C2C(=O)OC(=O)C2C2CCCCC2=C1 (stereo unspecified)	SN12C	inactive
CN(C)CCNC(=O)c1cc([N+](=O)[O-])cc2c1Oc1ccccc1O2	SN12C	inactive
CC(=O)OC1O[C@@H](C(C)(C)O)CC[C@@H]1[C@H]1CC[C@@]2(C)C3=C(CC[C@]12C)[C@@]1(C)C[C@@H](OC(=O)CC(C)(O)CC(=O)O)[C@H](OC(C)=O)C(C)(C)C1CC3 (stereo partly specified)	SN12C	inactive
Cc1nc(=O)[nH]c2c1C(=O)N(C(C)C)C(NC(C)C)S2 (stereo unspecified)	SN12C	inactive
Cc1ccc(S(=O)(=O)O)cc1.c1cc2c(c(NC3=NCCN3)c1)CCCC2	SN12C	inactive
O=C1Nc2ccc(S(=O)(=O)NCCO)cc2/C1=C1/Nc2ccccc2C1=O	SN12C	inactive
CC1=C2C(O)C(C(C)CO)C(O)CC2(C)C(O)CC1 (stereo unspecified)	SN12C	inactive
Cc1cccc2c1C(=O)OC2(c1cccc2ccccc12)c1cccc2ccccc12	SN12C	inactive
CCN(CC)/C(=C\Cl)Nc1ccccn1.[O-][Cl+3]([O-])([O-])O	SN12C	inactive
COc1cc(Cn2c3c(c4cc(O)ccc42)C(=O)c2ccccc2C3=O)cc(OC)c1	SN12C	inactive
C/C(=N\Nc1ncnc2ccccc12)c1ccccn1	SN12C	active
O=C1[C@H](Cl)[C@H]2c3cc4ccccc4nc3Oc3ccccc3N12	SN12C	inactive
N#Cc1cc2c(cc1Cl)Sc1nnc(Nc3ccccc3)n1S2(=O)=O	SN12C	inactive
Cc1ccc(C)c(C(=N)c2ccccc2Cc2ccccc2)c1	SN12C	inactive
